molecular target: AMP-activated protein kinase (AMPK) alpha-1/beta-1/gamma-1 (Homo sapiens, UniProt P54619+Q13131+Q9Y478); test: Activation of human AMPK alpha1beta1gamma1; format: protein-complex assay
Sequence (P54619 whole entry): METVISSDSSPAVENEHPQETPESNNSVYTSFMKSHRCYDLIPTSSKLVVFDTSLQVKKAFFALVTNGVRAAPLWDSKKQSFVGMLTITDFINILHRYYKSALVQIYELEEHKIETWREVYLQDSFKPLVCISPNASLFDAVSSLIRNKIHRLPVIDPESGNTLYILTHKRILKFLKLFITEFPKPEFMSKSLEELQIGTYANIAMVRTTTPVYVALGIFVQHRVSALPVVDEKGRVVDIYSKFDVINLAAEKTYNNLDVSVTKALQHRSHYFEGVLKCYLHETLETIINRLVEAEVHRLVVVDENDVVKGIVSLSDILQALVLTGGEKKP
Sequence (Q9Y478 whole entry): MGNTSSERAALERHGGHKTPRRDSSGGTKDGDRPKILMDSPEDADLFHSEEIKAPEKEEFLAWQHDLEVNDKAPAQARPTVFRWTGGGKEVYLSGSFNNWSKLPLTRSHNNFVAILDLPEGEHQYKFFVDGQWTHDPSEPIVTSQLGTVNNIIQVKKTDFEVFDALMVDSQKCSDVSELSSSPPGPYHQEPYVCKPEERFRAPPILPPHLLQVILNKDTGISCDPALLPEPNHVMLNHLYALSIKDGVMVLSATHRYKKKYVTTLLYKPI
Sequence (Q13131 whole entry): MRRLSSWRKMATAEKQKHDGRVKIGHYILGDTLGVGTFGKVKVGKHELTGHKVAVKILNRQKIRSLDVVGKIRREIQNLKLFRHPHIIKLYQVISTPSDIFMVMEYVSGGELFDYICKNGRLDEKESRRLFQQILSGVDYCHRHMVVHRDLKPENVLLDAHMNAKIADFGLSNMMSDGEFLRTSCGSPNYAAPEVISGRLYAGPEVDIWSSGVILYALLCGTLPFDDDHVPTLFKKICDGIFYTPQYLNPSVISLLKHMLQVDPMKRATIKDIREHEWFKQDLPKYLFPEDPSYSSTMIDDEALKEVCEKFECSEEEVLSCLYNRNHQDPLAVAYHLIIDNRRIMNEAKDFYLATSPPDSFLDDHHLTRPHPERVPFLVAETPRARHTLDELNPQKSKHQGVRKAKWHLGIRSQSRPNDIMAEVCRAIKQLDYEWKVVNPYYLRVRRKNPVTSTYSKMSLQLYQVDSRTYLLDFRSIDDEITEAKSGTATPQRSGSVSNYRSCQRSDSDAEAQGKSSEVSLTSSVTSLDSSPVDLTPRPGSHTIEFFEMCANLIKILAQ
parameter_measured: log10(EC50) (log10 of the value in nM)
Please interpret these as log10 of EC50 where EC50 is in nM.

Below: 4 molecules and their reported log10(EC50).
[
  {
    "molecule": "Cn1ccc2cc(-c3cc4nc(SCP(=O)(O)O)[nH]c4cc3Cl)ccc21",
    "value": 1.76
  },
  {
    "molecule": "O=C(O)C1CC1COc1nc2c(F)c(-c3ccc(-c4ccccc4)cc3)c(F)cc2[nH]1 (stereo not given)",
    "value": 1.23
  },
  {
    "molecule": "O=P(O)(O)CSc1nc2cc(-c3ccc(-c4ccc(F)cc4F)cc3)c(Cl)cc2[nH]1",
    "value": 2.26
  },
  {
    "molecule": "O=C(O)CSc1nc2cc(-c3ccc(-c4ccccc4O)cc3)c(Cl)cc2[nH]1",
    "value": 1.11
  }
]

Give its log10(EC50) value. Item: Cc1ccc(Oc2nc3cc(-c4ccc(-c5ccccc5O)cc4)c(Cl)cc3[nH]2)cc1C(=O)O
0.00

Values compiled from ChEMBL document CHEMBL3393052.
